These data points were gathered from patent US6737383B1.

Test system: crabgrass
Assay: Test B pre/postemergence crabgrass
Assay type: in vivo, Digitaria sanguinalis
Settings: Rate 250 g/ha, Postemergence; scale of 0 to 10 where 0 is no effect and 10 is complete control
MEASURED_ATTRIBUTE: Plant response rating, Crabgrass
Reply with just the number.

The recorded Plant response rating, Crabgrass for CC(C)N(C(=O)n1oc(=O)n(Cc2ccccn2)c1=O)c1ccc(F)cc1 is 3

The recorded Plant response rating, Crabgrass for CC(C)N(C(=O)n1oc(=O)n(CCCCF)c1=O)c1ccc(F)cc1 is 9

The recorded Plant response rating, Crabgrass for CCc1cccc(CC)c1-n1c(=O)on(C(=O)N(c2ccc(F)cc2)C(C)C)c1=O is 0

====

System: wild oat
Experiment: Test E wild oat
Format: in vivo, Avena fatua
Settings: Preemergence, Rate 500 g/ha; 0 to 100 scale (0 no effect, 100 complete control)
MEASURED_ATTRIBUTE: Plant response rating, Wild oat
Reply with just the number.

The recorded Plant response rating, Wild oat for CC1CC1n1c(=O)on(C(=O)N(c2ccc(F)cc2F)C(C)C)c1=O (centres unmarked) [Compound 372] is 80

The recorded Plant response rating, Wild oat for CC(C)N(C(=O)n1oc(=O)n(C2CC3CCC2C3)c1=O)c1ccccc1 (centres unmarked) [Compound 328] is 50

The recorded Plant response rating, Wild oat for CC(C)N(C(=O)n1oc(=O)n(CC2CCOC2)c1=O)c1ccc(F)cc1 (centres unmarked) [Compound 375] is 70

The recorded Plant response rating, Wild oat for CC1CC1n1c(=O)on(C(=O)N(c2ccc(F)cc2)C(C)C)c1=O (centres unmarked) [Compound 371] is 90

The recorded Plant response rating, Wild oat for CC(C)N(C(=O)n1oc(=O)n(C2CCC2)c1=O)c1ccc(F)cc1F [Compound 351] is 80

====

Provide the reported Sugarbeets plant response rating of each item.
System: sugar beet
Assay: Test B pre/postemergence sugar beet
Type: in vivo, Beta vulgaris
Conditions: Postemergence, Rate 62 g/ha; scale 0 to 10, 0 is no effect, 10 is complete control
Reply with just the number.

Measured Sugarbeets plant response rating for this entry CCN(C(=O)n1oc(=O)n(-c2ccc(F)cc2F)c1=O)C1CCCCC1 on sugar beet: 0

Measured Sugarbeets plant response rating for this entry CN(C(=O)n1oc(=O)n(Cc2cccs2)c1=O)c1ccccc1 on sugar beet: 0

Measured Sugarbeets plant response rating for this entry COc1cccc(C)c1-n1c(=O)on(C(=O)N(c2ccc(F)cc2)C(C)C)c1=O on sugar beet: 0

Measured Sugarbeets plant response rating for this entry COc1cccc(C)c1-n1c(=O)on(C(=O)N(c2ccccc2)C(C)C)c1=O on sugar beet: 0

====

Test system: pigweed
Test: Test B pre/postemergence pigweed
Assay type: in vivo, Amaranthus retroflexus
Conditions: Postemergence, Rate 500 g/ha; scale 0 to 10, 0 is no effect, 10 is complete control
MEASURED_ATTRIBUTE: Plant response rating, Redroot pigweed
Reply with just the number.

The recorded Plant response rating, Redroot pigweed for CC(C)N(C(=O)n1oc(=O)n(CCCF)c1=O)c1ccc(F)cc1F is 10

The recorded Plant response rating, Redroot pigweed for CC(C)N(C(=O)n1oc(=O)n(CCCNC(=O)CCl)c1=O)c1ccccc1 is 0

The recorded Plant response rating, Redroot pigweed for CC(C)N(C(=O)n1oc(=O)n(CC2CCC2)c1=O)c1ccc(Cl)cc1 is 0

The recorded Plant response rating, Redroot pigweed for CC(C)N(C(=O)n1oc(=O)n(CCC2OCCCO2)c1=O)c1ccc(Cl)cc1 is 2

The recorded Plant response rating, Redroot pigweed for CCN(CC)C(=O)Cn1c(=O)on(C(=O)N(c2ccc(F)cc2F)C(C)C)c1=O is 9

The recorded Plant response rating, Redroot pigweed for CCC(=O)Cn1c(=O)on(C(=O)N(c2ccc(F)cc2F)C(C)C)c1=O is 0

====

System: rice
Experiment: Test B flood test rice
Type: in vivo, Oryza sativa
Conditions: Rate 125 g/ha; under heading Pre-emergence; flood test species; visual evaluation after twelve to sixteen days
Provide the reported Rice plant response rating (0 to 10 scale, 0 is no effect, 10 is complete control) of each item.
Reply with just the number.

The recorded Rice plant response rating (0 to 10 scale, 0 is no effect, 10 is complete control) for CC1CC1n1c(=O)on(C(=O)N(c2ccc(F)cc2)C(C)C)c1=O (centres unmarked) is 0

The recorded Rice plant response rating (0 to 10 scale, 0 is no effect, 10 is complete control) for CC[Si](C)(C)Cn1c(=O)on(C(=O)N(c2ccc(Cl)cc2)C(C)C)c1=O is 0

The recorded Rice plant response rating (0 to 10 scale, 0 is no effect, 10 is complete control) for CC(C)N(C(=O)n1oc(=O)n(CC2CCC2)c1=O)c1ccc(Cl)cc1 is 0

The recorded Rice plant response rating (0 to 10 scale, 0 is no effect, 10 is complete control) for COC(OC)C(C)n1c(=O)on(C(=O)N(c2ccc(F)cc2)C(C)C)c1=O (centres unmarked) is 0

The recorded Rice plant response rating (0 to 10 scale, 0 is no effect, 10 is complete control) for CC(C)N(C(=O)n1oc(=O)n(CO)c1=O)c1ccc(Cl)cc1 is 0

====

Tested on: giant foxtail
Test: Test B pre/postemergence giant foxtail
Type: in vivo, Setaria faberii
Details: Preemergence, Rate 125 g/ha; scale 0 to 10, 0 is no effect, 10 is complete control
MEASURED_ATTRIBUTE: Giant foxtail plant response rating
Reply with just the number.

Measured Giant foxtail plant response rating for this entry COCCOCn1c(=O)on(C(=O)N(c2ccc(Cl)cc2)C(C)C)c1=O on giant foxtail: 10

Measured Giant foxtail plant response rating for this entry CCCCCn1c(=O)on(C(=O)N(c2ccccc2)C(C)C)c1=O on giant foxtail: 9

Measured Giant foxtail plant response rating for this entry CC(C)N(C(=O)n1oc(=O)n(CCCF)c1=O)c1ccc(F)cc1F on giant foxtail: 10

Measured Giant foxtail plant response rating for this entry CC(C)N(C(=O)n1oc(=O)n(C[Si](C)(C)C)c1=O)c1ccc(F)cc1F on giant foxtail: 0

Measured Giant foxtail plant response rating for this entry CCN(CC)C(=O)Cn1c(=O)on(C(=O)N(c2ccc(F)cc2F)C(C)C)c1=O on giant foxtail: 9

Measured Giant foxtail plant response rating for this entry C=CCCCn1c(=O)on(C(=O)N(c2ccccc2)C(C)C)c1=O on giant foxtail: 10

====

Provide the reported Plant response rating, B. signalgrass of each item.
Tested on: surinam grass
Assay: Test B pre/postemergence surinam grass
Type: in vivo, Brachiaria decumbens
Conditions: Preemergence, Rate 62 g/ha; scale 0 to 10 (0 no effect, 10 complete control)
Reply with just the number.

The recorded Plant response rating, B. signalgrass for CCC(CC)n1c(=O)on(C(=O)N(c2ccc(F)cc2)C(C)C)c1=O is 1

The recorded Plant response rating, B. signalgrass for CC(C)N(C(=O)n1oc(=O)n(N2CCOCC2)c1=O)c1ccc(F)cc1 is 0

The recorded Plant response rating, B. signalgrass for CC1CC1n1c(=O)on(C(=O)N(c2ccc(F)cc2)C(C)C)c1=O (stereo not drawn) is 0

The recorded Plant response rating, B. signalgrass for CC(C)N(C(=O)n1oc(=O)n(CC#N)c1=O)c1ccc(F)cc1 is 0

The recorded Plant response rating, B. signalgrass for CC(C)N(C(=O)n1oc(=O)n(CC2CCCO2)c1=O)c1ccc(F)cc1 (stereo not drawn) is 3

The recorded Plant response rating, B. signalgrass for CC(C)N(C(=O)n1oc(=O)n(C)c1=O)c1ccc(F)cc1F is 1

====

Tested on: soybean
Assay: Test B pre/postemergence soybean
Assay type: in vivo, Glycine max
Conditions: Preemergence, Rate 250 g/ha; scale 0 to 10, 0 is no effect, 10 is complete control
Provide the reported Soybean plant response rating of each item.
Reply with just the number.

The recorded Soybean plant response rating for CC(C)N(C(=O)n1oc(=O)n(CO)c1=O)c1ccc(Cl)cc1 is 0

The recorded Soybean plant response rating for CC(C)N(C(=O)n1oc(=O)n(CCC#N)c1=O)c1ccc(Cl)cc1 is 2

The recorded Soybean plant response rating for CC(C)N(C(=O)n1oc(=O)n(CC2(C)COC2)c1=O)c1ccccc1 is 0

====

Test system: sugar beet
Test: Test B pre/postemergence sugar beet
Assay type: in vivo, Beta vulgaris
Conditions: Preemergence, Rate 125 g/ha
MEASURED_ATTRIBUTE: Sugarbeets plant response rating (0 to 10 scale)
Reply with just the number.

The recorded Sugarbeets plant response rating (0 to 10 scale) for CCN(C(=O)n1oc(=O)n(C(C)C)c1=O)C1CCCCC1 [Compound 309] is 0

The recorded Sugarbeets plant response rating (0 to 10 scale) for CCc1cccc(CC)c1-n1c(=O)on(C(=O)N(c2ccc(F)cc2)C(C)C)c1=O [Compound 304] is 1

The recorded Sugarbeets plant response rating (0 to 10 scale) for CC(C)N(C(=O)n1oc(=O)n(C2(C)CC2)c1=O)c1ccc(F)cc1F [Compound 363] is 4

The recorded Sugarbeets plant response rating (0 to 10 scale) for CCN(C(=O)n1oc(=O)n(C2CC2)c1=O)C1CCCCC1 [Compound 298] is 0
